As shown below, each of these compounds has a reported melting point value.

• CC1CCN(c2ccc(C(=O)Nc3ccc4nc(CN5CCCC5)ccc4c3)cc2)CC1 = 200 to 202 °C
• O=Cc1c(-c2ccccc2)nn(-c2ccccc2)c1-c1ccccc1 = 159 to 160 °C
• NN(CCO)C(=O)Nc1ccc(Cl)cc1 = 141 to 142 °C

Moving on to the next compound.
response.value for COc1cc(N)c(Cl)cc1C(=O)NCC1CCN(CCCCCC(=O)c2cc3ccccc3s2)CC1 (field: melting point) = 157 to 159 °C

====

OUTCOME MEASURE: melting point

- N#Cc1cccc(CN2CCN(c3ccc(NC(=O)c4ccccc4OCc4ccc(C(F)(F)F)cc4)cc3)CC2)c1: 190 to 191 °C
- CC(C)(C)OC(=O)NCC1Cc2ccc(CC(=O)O)cc2C1 (stereo not given): 123 to 124 °C
- COc1ccc(S(=O)(=O)N2CCc3cccc(-c4cccnc4)c32)cc1: 179 to 181 °C
- Cc1nc(NC(=O)NS(=O)(=O)c2ccccc2[N+](=O)[O-])nc2c1CCC2: 202 to 205 °C

--- query ---
According to the records, this molecule FC(F)(F)c1cc(Nc2ccc3[nH]ccc3c2)nc(-c2cccnc2)n1 displays melting point of 142 to 143 °C

Values were extracted from a melting point compilation (Tetko et al.; mined from patent text by program, amines drawn as free bases though some values may be those of a salt).
